B1: CROP (parent)
chain: VFGRGDNISDVSKFLEDDKWMEE

Variants of: B1
assayProtocol: protein stability index of a GFP-peptide fusion (GPS, HEK-293T) (PSI 1-6); higher = more stable;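 further: lentivirally expressed fusions sorted by FACS into six bins by GFP to DsRed ratio, PSI derived from sequencing read proportions per bin multiplied by bin number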
conditionDescription: c terminus: native
observedProperty: protein stability index
Please reply with the number alone, leaving off any unit.

Would you kindly share the measured protein stability index for VFGRGDNISDVSKFLEDDKWIEE [M21I] ?
1.27

Query VFGRGDNISDVSKGLEDDKWMEE [F14G] next
2.58

Field entry: VFGRIDNISDVSKFLEDDKWMEE [G5I]
2.77

Shifting focus to the variant that follows.
Which protein stability index is reported for this variant? VFGRGSNISDVSKFLEDDKWMEE [D6S]
2.15
